TARGET OF ASSAY: Delta-type opioid receptor (Homo sapiens, UniProt P41143)
Sequence (P41143 whole entry): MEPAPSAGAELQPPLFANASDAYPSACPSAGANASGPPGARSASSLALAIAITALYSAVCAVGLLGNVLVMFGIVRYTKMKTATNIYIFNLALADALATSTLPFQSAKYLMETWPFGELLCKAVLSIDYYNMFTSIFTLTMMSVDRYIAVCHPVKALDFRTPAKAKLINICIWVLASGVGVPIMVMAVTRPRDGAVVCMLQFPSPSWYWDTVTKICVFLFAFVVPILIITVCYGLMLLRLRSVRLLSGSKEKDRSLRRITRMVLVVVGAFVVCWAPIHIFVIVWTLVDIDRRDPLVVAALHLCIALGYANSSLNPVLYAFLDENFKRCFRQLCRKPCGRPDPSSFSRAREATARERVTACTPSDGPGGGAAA
EXPERIMENT SUMMARY: Efficacy relative to stimulation of [35S]GTP-gamma-S, binding by SNC80 was calculated for human delta opioid receptor
Type: functional
MEASUREMENT TYPE: Relative efficacy

INSERT INTO assay_data (smiles_record, measurement_type, observed_value) VALUES
  ('CCN(CC)C(=O)c1ccc(C(=C2CC3CCC(C2)N3C)c2cccc(O)c2)cc1', 'Relative efficacy', 0.87),
  ('CC(C)N(C(=O)c1ccc(C(=C2CC3CCC(C2)N3CCc2ccccc2)c2ccccc2)cc1)C(C)C', 'Relative efficacy', 0.92),
  ('COCCN(CCOC)C(=O)c1ccc(C(=C2CC3CCC(C2)N3CCc2ccccc2)c2ccccc2)cc1', 'Relative efficacy', 0.71),
  ('CCN(CC)C(=O)c1ccc(/C(=C2\C[C@H]3CC[C@@H](C2)N3CCc2ccccc2)c2ccccc2)cc1', 'Relative efficacy', 0.82),
  ('CCN(CC)C(=O)c1ccc(C(=C2CC3CCC(C2)N3)c2ccc(O)cc2)cc1', 'Relative efficacy', 0.96),
  ('O=C(c1ccc(C(=C2CC3CCC(C2)N3CCc2ccccc2)c2ccccc2)cc1)N1CCCC1', 'Relative efficacy', 0.86),
  ('C=CCN1[C@@H]2CC[C@H]1C/C(=C(\c1ccccc1)c1ccc(C(=O)N(CC)CC)cc1)C2', 'Relative efficacy', 1.05),
  ('CCN(CC)C(=O)c1ccc(C(=C2CC3CCC(C2)N3CCc2c[nH]c3ccccc23)c2ccccc2)cc1', 'Relative efficacy', 0.91),
  ('CCN(CC)C(=O)c1ccc(C(=C2CC3CCC(C2)N3CC(=O)c2ccccc2)c2ccccc2)cc1', 'Relative efficacy', 0.68),
  ('CCN(CC)C(=O)c1ccc(/C(=C2/C[C@H]3CC[C@@H](C2)N3C)c2ccccc2)cc1', 'Relative efficacy', 0.85),
  ('CCN(CC)C(=O)c1ccc(C(=C2CC3CCC(C2)N3C)c2cccc(OC)c2)cc1', 'Relative efficacy', 0.87);
